subject_of_test: human recombinant CRF-1 receptor (Homo sapiens, UniProt P34998)
Sequence (P34998 24-415): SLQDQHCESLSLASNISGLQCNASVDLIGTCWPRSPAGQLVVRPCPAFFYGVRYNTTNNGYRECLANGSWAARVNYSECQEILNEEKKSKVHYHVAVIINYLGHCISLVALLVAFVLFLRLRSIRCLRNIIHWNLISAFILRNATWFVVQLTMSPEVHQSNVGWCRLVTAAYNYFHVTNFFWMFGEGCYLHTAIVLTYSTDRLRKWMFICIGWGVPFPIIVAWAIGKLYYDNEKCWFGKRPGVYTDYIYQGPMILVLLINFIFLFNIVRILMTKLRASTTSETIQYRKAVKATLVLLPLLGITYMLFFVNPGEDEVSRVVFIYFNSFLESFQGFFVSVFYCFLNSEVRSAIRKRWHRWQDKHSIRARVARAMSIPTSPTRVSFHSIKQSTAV
assay_method_text: CRF-1 receptor antagonism, HTRF cAMP assay in CHO cells in the presence of 1 nM CRF
test_conditions: CHO cells expressing human recombinant CRF-1; inhibition of the effect of 1 nM CRF on cAMP
Could you please report measured pIC50 for the items listed next?
Give bare numbers, as −log10 of the molar value.

# compound, pIC50
measured = [
    ("O=C(N[C@H]1CC[C@H](CNc2[nH]ncc2-c2cccnc2)CC1)c1cc(C(F)(F)F)ccc1Cl [Example 19.103]", 7.43),
    ("Cn1nc(NC[C@H]2CC[C@H](NC(=O)c3cc(C(F)(F)F)ccc3Cl)CC2)c2ccccc21 [Example 19.70]", 7.54),
    ("O=C(N[C@H]1CC[C@H](CNc2n[nH]cc2-c2ccccc2)CC1)c1cc(C(F)(F)F)ccc1Cl [Example 19.94]", 7.23),
]

Read the next record carefully.
Item Cc1c(NC[C@H]2CC[C@H](NC(=O)c3cc(C(F)(F)F)ccc3Cl)CC2)n[nH]c1-c1ccccc1 [Example 19.79] with human recombinant CRF-1 receptor (Homo sapiens, UniProt P34998) - pIC50?
7.43

---

subject_of_test: human recombinant CRF-1 receptor (Homo sapiens, UniProt P34998)
assay_method_text: CRF-1 receptor antagonism, HTRF cAMP assay in CHO cells in the presence of 1 nM CRF
test_conditions: CHO cells expressing human recombinant CRF-1; inhibition of the effect of 1 nM CRF on cAMP
I'd be grateful if you could share measured log10 of IC50 for these entries.
Note the log scale: values are log10 of IC50 expressed in µM.

Consider the following illustrative entries.
# compound_structure_string, subject_of_test, log10 of IC50
rows = [
    ("Cc1ncccc1NC[C@H]1CC[C@H](NC(=O)c2cc(C(F)(F)F)ccc2Cl)CC1", "human recombinant CRF-1 receptor (Homo sapiens, UniProt P34998)", -1.72),
    ("Cc1nn(C[C@H]2CC[C@H](NC(=O)c3cc(C(F)(F)F)ccc3Cl)CC2)c(C)c1Cl", "human recombinant CRF-1 receptor (Homo sapiens, UniProt P34998)", -0.95),
    ("Cc1cc(C)n(C[C@H]2CC[C@H](NC(=O)c3cc(C(F)(F)F)ccc3Cl)CC2)n1", "human recombinant CRF-1 receptor (Homo sapiens, UniProt P34998)", -1.66),
]

For every record below, what is its log10 of IC50?
1. Cc1nc(NC[C@H]2CC[C@H](NC(=O)c3cc(C(F)(F)F)ccc3Cl)CC2)sc1C
2. O=C(N[C@H]1CC[C@H](Cn2ccc(N3CCNC3=O)n2)CC1)c1cc(C(F)(F)F)ccc1Cl
3. O=C(N[C@H]1CC[C@H](CNc2cccc(F)c2)CC1)c1cc(C(F)(F)F)ccc1Cl
4. Cc1nc(C)n(C[C@H]2CC[C@H](NC(=O)c3cc(C(F)(F)F)ccc3Cl)CC2)n1

1. -1.22
2. -1.05
3. -1.30
4. -0.52

Requested read-out: log10 of IC50. Entry: Cc1ncc(Cl)cc1C(=O)N[C@H]1CC[C@H](Cn2nc(C)c(C)c2C)CC1
-0.24
